- measurement.target: UniProt:P08253
- assay: Inhibition of human recombinant MMP2 after 30 mins
- Sequence (P08253 whole entry): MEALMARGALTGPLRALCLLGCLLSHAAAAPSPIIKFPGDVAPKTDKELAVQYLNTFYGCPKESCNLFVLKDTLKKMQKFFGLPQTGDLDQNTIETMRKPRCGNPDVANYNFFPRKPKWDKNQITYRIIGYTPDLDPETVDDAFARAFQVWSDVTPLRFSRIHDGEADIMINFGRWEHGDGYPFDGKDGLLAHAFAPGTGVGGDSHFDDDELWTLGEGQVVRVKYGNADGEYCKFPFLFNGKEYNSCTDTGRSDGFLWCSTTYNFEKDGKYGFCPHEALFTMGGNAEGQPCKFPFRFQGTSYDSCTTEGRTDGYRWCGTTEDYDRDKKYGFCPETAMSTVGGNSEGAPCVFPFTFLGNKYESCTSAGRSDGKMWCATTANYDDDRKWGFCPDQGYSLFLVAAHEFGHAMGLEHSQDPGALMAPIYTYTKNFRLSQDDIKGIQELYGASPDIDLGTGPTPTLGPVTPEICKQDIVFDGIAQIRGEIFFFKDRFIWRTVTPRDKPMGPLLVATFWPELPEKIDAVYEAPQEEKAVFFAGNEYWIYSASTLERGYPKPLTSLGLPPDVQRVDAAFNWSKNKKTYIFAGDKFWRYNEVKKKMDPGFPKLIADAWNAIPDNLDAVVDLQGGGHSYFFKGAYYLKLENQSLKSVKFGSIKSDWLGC
Each item that follows carries a reported pIC50.
Entry type: numeric. Quantity: pIC50, the -log10 of concentration in molar units.

Before answering, review these 5 worked examples.
>>> numeric_result("O=S(=O)(Nc1ccc(O)c2ncccc12)c1ccc(F)cc1")
5.14
>>> numeric_result("Oc1cccc2cccnc12 [OXYQUINOLINE]")
3.89
>>> numeric_result("O=S(=O)(Nc1ccc(O)c2ncccc12)c1ccccc1")
5.06
>>> numeric_result("O=S(=O)(Nc1ccc(O)c2ncccc12)c1ccc(-c2ccccc2)cc1")
4.97
>>> numeric_result("O=S(=O)(Nc1ccc(O)c2ncccc12)c1cccs1")
5.08

// pIC50 lookup, compound = O=S(=O)(Nc1ccc2cccnc2c1O)c1ccccc1 , result: 5.25

// pIC50 lookup, compound = O=c1[nH]ccc(=S)[nH]1 , result: 3.92

// pIC50 lookup, compound = Oc1coccc1=S , result: 4.12

// pIC50 lookup, compound = O=S(=O)(Nc1ccc2cccnc2c1O)c1ccc(-c2ccccc2)cc1 , result: 5.41

// pIC50 lookup, compound = O=c1cccccc1O [TROPOLONE] , result: 3.84

// pIC50 lookup, compound = O=S(=O)(Nc1ccc2cccnc2c1O)c1ccc(F)cc1 , result: 5.52

// pIC50 lookup, compound = O=S(=O)(Nc1ccc2cccnc2c1O)c1cccs1 , result: 5.37

// pIC50 lookup, compound = Nc1cccc(C(=O)O)c1O , result: 3.41

// pIC50 lookup, compound = CC(=O)NO [ACETOHYDROXAMIC ACID] , result: 1.82

---

- measurement.target: 72 kDa type IV collagenase (Homo sapiens, UniProt P08253)
- particulars: at 1 mM
- Sequence (P08253 110-660 limits assumed): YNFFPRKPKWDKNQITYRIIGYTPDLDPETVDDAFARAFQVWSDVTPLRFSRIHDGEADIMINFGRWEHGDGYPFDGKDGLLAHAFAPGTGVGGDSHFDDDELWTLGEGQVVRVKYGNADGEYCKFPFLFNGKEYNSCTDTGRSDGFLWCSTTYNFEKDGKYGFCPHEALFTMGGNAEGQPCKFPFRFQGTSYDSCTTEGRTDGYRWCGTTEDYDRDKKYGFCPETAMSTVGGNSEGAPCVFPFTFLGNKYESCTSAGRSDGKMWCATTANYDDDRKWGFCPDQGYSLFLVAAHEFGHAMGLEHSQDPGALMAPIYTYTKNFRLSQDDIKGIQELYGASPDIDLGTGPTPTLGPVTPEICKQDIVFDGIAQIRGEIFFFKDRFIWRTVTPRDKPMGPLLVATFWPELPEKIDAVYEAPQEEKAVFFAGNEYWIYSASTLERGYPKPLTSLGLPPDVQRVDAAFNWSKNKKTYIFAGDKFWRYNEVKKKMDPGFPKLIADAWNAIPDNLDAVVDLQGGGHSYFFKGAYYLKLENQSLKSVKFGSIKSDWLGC
Give MET when the value for inhibition is at least 40%. Give NOT MET when it is less.

Look over these answered cases.
>>> class_label("O=c1occcc1O")
"MET"
>>> class_label("Nc1ccc(C(=O)O)c(O)c1")
"NOT MET"
>>> class_label("Cc1nc(O)nc(O)c1C")
"NOT MET"
>>> class_label("O=C(O)c1cccc[n+]1[O-]")
"NOT MET"
>>> class_label("Cc1ccc2cccc(O)c2n1")
"MET"

Exam item: Can O=C(O)c1nccc2ccccc12 be said to have inhibition at or above 40%?
Marked response: MET

---

- measurement.target: Lethal factor (Bacillus anthracis)
- particulars: at 1 mM
reported.metric: inhibition (%)
Report only the number, with the unit % understood.

Before answering, review these 3 worked examples.
>>> numeric_result("Oc1ccccc1-c1nc2ccccc2s1")
1
>>> numeric_result("Cc1occ(O)c(=O)c1C(=O)O")
45
>>> numeric_result("Oc1ccccc1-c1nc2ccccc2o1")
0

// inhibition lookup, compound = O=C1C=C(O)C(=O)c2ccccc21 , result: 100

---

- measurement.target: Polyunsaturated fatty acid 5-lipoxygenase (Homo sapiens)
- Sequence (whole entry): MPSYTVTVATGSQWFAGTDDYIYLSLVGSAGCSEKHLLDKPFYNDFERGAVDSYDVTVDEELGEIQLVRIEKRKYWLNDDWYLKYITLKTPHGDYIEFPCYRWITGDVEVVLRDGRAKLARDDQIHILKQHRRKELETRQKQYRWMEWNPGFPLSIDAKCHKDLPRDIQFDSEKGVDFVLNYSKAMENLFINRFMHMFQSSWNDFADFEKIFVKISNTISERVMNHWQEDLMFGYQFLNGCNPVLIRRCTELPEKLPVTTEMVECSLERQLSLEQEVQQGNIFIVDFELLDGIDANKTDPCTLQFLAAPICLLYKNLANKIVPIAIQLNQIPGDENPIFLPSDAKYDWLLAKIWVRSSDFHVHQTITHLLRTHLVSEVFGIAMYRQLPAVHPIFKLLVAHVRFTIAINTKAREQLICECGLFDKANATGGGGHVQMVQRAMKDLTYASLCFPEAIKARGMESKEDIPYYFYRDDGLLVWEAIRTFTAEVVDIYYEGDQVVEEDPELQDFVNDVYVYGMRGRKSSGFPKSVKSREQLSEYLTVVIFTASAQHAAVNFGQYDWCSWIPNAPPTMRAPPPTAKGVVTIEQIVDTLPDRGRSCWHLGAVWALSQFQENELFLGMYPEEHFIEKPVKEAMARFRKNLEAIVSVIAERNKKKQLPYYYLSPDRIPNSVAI
- assay: Inhibition of human recombinant 5-lipoxygenase at 1 mM after 10 mins by fluorescence assay
reported.metric: inhibition (%)
Report only the number, with the unit % understood.

Before answering, review these 6 worked examples.
>>> numeric_result("c1cnc2c(c1)ccc1cccnc12")
4
>>> numeric_result("CCC(C(C)=O)C(C)=O")
62
>>> numeric_result("O=c1occcc1O")
77
>>> numeric_result("Cc1ccc(C(=O)O)c(O)c1")
17
>>> numeric_result("O=C(O)c1c(O)cccc1O")
38
>>> numeric_result("CCc1c(O)c(=S)ccn1CC")
97

// inhibition lookup, compound = Cc1cc(=O)c(O)c(CCl)o1 , result: 72

// inhibition lookup, compound = Cc1ccc(S(N)(=O)=O)cc1 , result: 25

// inhibition lookup, compound = O=C(O)c1ncccc1O , result: 17

---

- measurement.target: Stromelysin-1 (Homo sapiens);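 note: recombinant enzyme, inhibition read after a 30 min incubation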
- particulars: at 1 mM
Class assignment keyed on inhibition, ranges low interval: < 10%; middle interval: ≥ 10% and < 80%; high interval: ≥ 80%

>>> class_label("COc1ccccc1O")
"low interval"

Exam item: Form: Item = O=C(O)c1ccc(F)cc1O ; Class = ?
Marked response: low interval

Exam item: Form: Item = Oc1nccc(S)n1 ; Class = ?
Marked response: high interval

---

Each item that follows carries a reported inhibition.
- measurement.target: Matrix metalloproteinase-9 (Homo sapiens);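 note: recombinant human MMP9, activity read after 30 min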
- particulars: at 1 mM
Report only the number, with the unit % understood.

Before answering, review these 8 worked examples.
>>> numeric_result("Cc1ccc(C(=O)O)c(C(=O)O)n1")
-10
>>> numeric_result("C1CNCCNCCN1")
100
>>> numeric_result("Cc1occc(=O)c1O")
32
>>> numeric_result("CCc1c(O)c(=O)ccn1C")
13
>>> numeric_result("Cc1cc(=O)c(O)c(CO)o1")
44
>>> numeric_result("O=C(O)c1cccc(C(=O)O)n1")
-7
>>> numeric_result("Oc1cccnc1O")
21
>>> numeric_result("CCc1c(O)c(=O)ccn1CC")
15

// inhibition lookup, molecule = O=C(O)c1ccc(C(=O)O)nc1 , result: -2

// inhibition lookup, molecule = Cc1nc(O)cc(O)n1 , result: 4

// inhibition lookup, molecule = [O-][n+]1ccccc1S , result: 77

// inhibition lookup, molecule = Cc1cc(=O)c(O)c(CCl)o1 , result: 41

---

- measurement.target: Interstitial collagenase (Homo sapiens) (UniProt P03956);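 note: recombinant human enzyme, with inhibition measured after 30 min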
- Sequence (whole entry): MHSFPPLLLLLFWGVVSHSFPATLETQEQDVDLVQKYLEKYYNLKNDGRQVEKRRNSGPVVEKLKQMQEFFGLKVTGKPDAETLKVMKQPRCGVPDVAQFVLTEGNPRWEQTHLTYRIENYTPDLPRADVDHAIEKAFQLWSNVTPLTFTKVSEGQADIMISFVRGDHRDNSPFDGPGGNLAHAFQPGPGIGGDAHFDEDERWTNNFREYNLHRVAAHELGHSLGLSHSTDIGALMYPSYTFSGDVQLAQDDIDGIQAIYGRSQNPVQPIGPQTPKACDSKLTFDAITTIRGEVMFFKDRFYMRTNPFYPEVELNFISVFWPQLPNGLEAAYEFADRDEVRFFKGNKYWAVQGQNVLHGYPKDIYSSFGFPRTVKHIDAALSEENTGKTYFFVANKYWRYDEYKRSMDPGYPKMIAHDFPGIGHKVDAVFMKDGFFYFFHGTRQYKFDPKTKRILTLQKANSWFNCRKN
- particulars: at 1 mM
Each item that follows carries a reported inhibition.
Report only the number, with the unit % understood.

Before answering, review these 5 worked examples.
>>> numeric_result("Cc1ccc(S(N)(=O)=O)cc1")
11
>>> numeric_result("CCc1c(O)c(=O)ccn1C")
34
>>> numeric_result("O=c1cc[nH]c(=S)[nH]1")
52
>>> numeric_result("Cc1nc(O)cc(O)n1")
14
>>> numeric_result("Oc1ccc2ccccc2c1O")
71

// inhibition lookup, compound = CC(=O)NO [ACETOHYDROXAMIC ACID] , result: 10

// inhibition lookup, compound = Oc1cc(O)nc(S)n1 , result: 30

// inhibition lookup, compound = Oc1ccc(Cl)c2cccnc12 , result: 39

// inhibition lookup, compound = O=C(O)c1cc(O)ccc1O [GENTISIC ACID] , result: 13

// inhibition lookup, compound = Cc1ccc(C(=O)O)c(O)c1 , result: 8

// inhibition lookup, compound = Nc1cc(=O)nc(N)[nH]1 , result: 3

// inhibition lookup, compound = CC(C)c1cccc(C(=O)O)c1O , result: 13

// inhibition lookup, compound = Oc1cccc2cccnc12 [OXYQUINOLINE] , result: 77

// inhibition lookup, compound = c1cnc2c(c1)ccc1cccnc12 , result: 71

// inhibition lookup, compound = CC(C)c1cccc(=O)c(O)c1 , result: 95

// inhibition lookup, compound = Cc1cc(=O)c(O)c(CO)o1 , result: 60
